Origin of values: paper PMC10333884

Overview of reported Kd across a group of binders:
Measured on: T1, Clathrin N-terminal domain (NTD) (human, UniProt Q00610 1-364)
T1 construct: clathrin heavy chain, N-terminal domain; also called Clathrin NTD; CLTC-NTD; source: E. coli BL21-Gold(DE3), purified (GSH or Ni2+ beads), tag removed with protease
T1 sequence: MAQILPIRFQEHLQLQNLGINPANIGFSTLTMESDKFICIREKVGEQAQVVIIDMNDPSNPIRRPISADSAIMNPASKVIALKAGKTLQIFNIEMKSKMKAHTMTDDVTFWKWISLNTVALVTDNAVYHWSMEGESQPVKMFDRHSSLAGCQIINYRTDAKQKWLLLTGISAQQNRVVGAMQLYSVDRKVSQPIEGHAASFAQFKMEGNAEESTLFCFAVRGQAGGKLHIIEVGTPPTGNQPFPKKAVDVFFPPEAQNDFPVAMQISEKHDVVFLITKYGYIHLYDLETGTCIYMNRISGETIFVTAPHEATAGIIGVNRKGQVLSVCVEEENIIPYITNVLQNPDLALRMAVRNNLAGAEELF
Measurement description: fluorescence polarisation; displacement: unlabelled peptide diluted 1:1 in series and added to a pre-formed complex of protein domain and FITC-labelled probe peptide (5 nM in the measurement); 50 mM sodium phosphate pH 7.4, room temperature; KD calculated from the displacement curves; technical triplicates
Measurement parameters: both partners purified
Non-standard residues stand in square brackets, D forms with d. No end group written: not given here. pS = N[C@@H](COP(=O)(O)O)C(=O)O
Dear colleague, please return just the value in µM, with no unit written.

Examples with their reported Kd follow.
Binder	Kd / µM
YGQLIDLS[pS]PLIQLSPE (not part of GTSE1; G2 and S phase-expressed protein 1 (GTSE1), human, residues 692-707; also called pS699 GTSE1; source: synthetic peptide (Glbiochem or Genecust)) [GTSE1 692-707 peptide phosphorylated at S699]	109
YGQLIDLSSPLIQL[pS]PE (not part of GTSE1; G2 and S phase-expressed protein 1 (GTSE1), human, residues 692-707; also called pS705 GTSE1; source: synthetic peptide (Glbiochem or Genecust)) [GTSE1 692-707 peptide phosphorylated at S705]	105
YGQLIDL[pS]SPLIQLSPE (not part of GTSE1; G2 and S phase-expressed protein 1 (GTSE1), human, residues 692-707; also called pS698 GTSE1; source: synthetic peptide (Glbiochem or Genecust)) [GTSE1 692-707 peptide phosphorylated at S698]	123

Now look at this entry.
Value lookup for Kd; key = YGQLIDLSSPLIQLSPE (not part of GTSE1; G2 and S phase-expressed protein 1 (GTSE1), human, residues 692-707; also called wild-type GTSE1; source: synthetic peptide (Glbiochem or Genecust)) [GTSE1 692-707 peptide, unphosphorylated]
91
